- Protocol text: human liver microsome (HLM) metabolic stability assay
- Type: in vitro ADME
- Assay context: human liver microsomes; % hepatic blood flow calculated from t1/2
- Procedure: The 5 time point, high-throughput human liver microsome (HLM) metabolic stability assay is designed to determine in vitro compound metabolism. Compounds are incubated with HLMs at a concentration of 1 uM, at 37° C., for a total of 60 min. The percent of compound remaining at 5, 15, 30, and 60 min is used to calculate the t½ (min), CLint (mL/min/kg), CLh (mL/min/kg), and % Qh. […] The plates are analyzed using LC/MS/MS with electron spray ionization (ESI) and the previously determined MRM transitions. […]
Outcome measure: HLM (% Qh)

> print(dat)
                                   molecule  outcome.measure  observed.measurement
1  COc1c(C(=O)O)cnn1-c1cccc(-c2cccc(C)c2OCc2ccc3c(c2)CCN(C2CCOC2)C3)n1 (centres unmarked) [Compound 15]       HLM (% Qh)              <24 % Qh
2  CCOc1c(C(=O)O)cnn1-c1cccc(-c2cccc(C)c2OCc2ccc3c(c2C)CCN(C[C@@H]2COCCO2)CC3)n1 [Compound 211]       HLM (% Qh)              <24 % Qh
3  COc1c(C(=O)O)cnn1-c1cccc(-c2cccc(C)c2OCc2ccc3c(c2Cl)CCN(C2CCOC2)C3)n1 (centres unmarked) [Compound 22]       HLM (% Qh)               33 % Qh
4  CCOc1c(C(=O)O)cnn1-c1cccc(-c2cccc(C)c2OCc2ccc3c(c2C)CCN(C2CCOCC2)C3=O)n1 [Compound 194]       HLM (% Qh)              <24 % Qh
5  CCOc1c(C(=O)O)cnn1-c1cccc(-c2cccc(C)c2OCc2ccc3c(c2)CCN(CC2CC(F)(F)C2)C3)n1 [Compound 96]       HLM (% Qh)               30 % Qh
6  COc1c(C(=O)O)cnn1-c1cccc(-c2cccc(C)c2OCc2cc(F)c3c(c2)CCN(C[C@H]2CCCCO2)C3)n1 [Compound 229]       HLM (% Qh)               34 % Qh
7  COc1c(C(=O)O)cnn1-c1cccc(-c2cccc(C)c2OCc2ccc3c(c2)C(C)(C)CN(C2CCCOC2)C3)n1 (centres unmarked) [Compound 218]       HLM (% Qh)               89 % Qh
8  Cc1cccc(-c2cccc(-n3ncc(C(=O)O)c3OC(C)C)n2)c1OCc1ccc2c(c1C)CCN(C1COC1)C2 [Compound 45]       HLM (% Qh)              <24 % Qh

Any idea what HLM (% Qh) was measured for COc1c(C(=O)O)cnn1-c1cccc(-c2cccc(C)c2OCc2ccc3c(c2)CCN(CC(C)(C)O)C3)n1 [Compound 33] ?
<24 % Qh

Any idea what HLM (% Qh) was measured for CCOc1c(C(=O)O)cnn1-c1cccc(-c2cccc(C)c2OCc2ccc3c(c2)CCN(CC2CCOCC2)C3)n1 [Compound 69] ?
<24 % Qh

Any idea what HLM (% Qh) was measured for Cc1cccc(-c2cccc(-n3ncc(C(=O)O)c3OC(C)C)n2)c1OCc1ccc2c(c1)CCN([C@@H]1CCCOC1)C2 [Compound 113] ?
<24 % Qh

Any idea what HLM (% Qh) was measured for CCOc1c(C(=O)O)cnn1-c1cccc(-c2cccc(C)c2OCc2ccc3c(c2)CCN(C2CCCOC2)C3)n1 (centres unmarked) [Compound 36] ?
<24 % Qh

Any idea what HLM (% Qh) was measured for CCOc1c(C(=O)O)cnn1-c1cccc(-c2cccc(C)c2OCc2ccc3c(c2C)CCN(C[C@H]2CCOC2)C3)n1 [Compound 193] ?
<24 % Qh

Any idea what HLM (% Qh) was measured for COc1c(C(=O)O)cnn1-c1cccc(-c2cccc(C)c2OCc2cc(C)c3c(c2)CN(C2COC2)C3)n1 [Compound 258] ?
<24 % Qh

---

- Protocol text: Assessment of solubility (McIlvaine buffers, 24 h shake, UPLC-UV)
- Type: physicochemical
- Assay context: pH 6.8, aqueous buffer, kinetic from dmso stock
Let's look at some compounds and their measured solubility at 24 h.
Numeric only. Scale: µg/mL

These recorded examples may help you get a feel for the data.
> print(dat)
                                   compound  observed.measurement
1  CCOc1c(C(=O)O)cnn1-c1cccc(-c2cccc(C)c2OCc2ccc3c(c2C)CCN(CC2(F)COC2)C3)n1 [Compound 208]                    57
2  Cc1cccc(-c2cccc(-n3ncc(C(=O)O)c3OC(C)C)n2)c1OCc1ccc2c(c1C)CCN(CC1(C)COC1)C2 [Compound 46]                    86
3  COc1c(C(=O)O)cnn1-c1cccc(-c2cccc(C)c2OCc2ccc3c(c2Cl)CCN(CC2(C)COC2)C3)n1 [Compound 19]                    75

Any idea what solubility at 24 h was measured for Cc1cccc(-c2cccc(-n3ncc(C(=O)O)c3OC(C)C)n2)c1OCc1ccc2c(c1C)CCN(C(C)C)C2 [Compound 43] ?
82

Any idea what solubility at 24 h was measured for CCOc1c(C(=O)O)cnn1-c1cccc(-c2cccc(C)c2OCc2ccc3c(c2F)CCN(C2CCOCC2)C3)n1 [Compound 159] ?
51

Any idea what solubility at 24 h was measured for COc1c(C(=O)O)cnn1-c1cccc(-c2cccc(C)c2OCc2ccc3c(c2C)CCN([C@H]2CCCOC2)C3)n1 [Compound 141] ?
110

Any idea what solubility at 24 h was measured for COc1c(C(=O)O)cnn1-c1cccc(-c2cccc(C)c2OCc2ccc3c(c2)CCN(C2CC(C)OC(C)C2)C3)n1 (centres unmarked) [Compound 62] ?
91

---

- Protocol text: Assessment of solubility (McIlvaine buffers, 24 h shake, UPLC-UV)
- Assay type: physicochemical
- Assay context: pH 6.8, aqueous buffer, kinetic from dmso stock
Parameter threshold = 90 µg/mL. Response is fulfilled when solubility at 24 h meets or exceeds it, else not fulfilled.

Previously resolved entries follow.
> print(dat)
                                   molecule    group.label
1  CCOc1c(C(=O)O)cnn1-c1cccc(-c2cccc(C)c2OCc2ccc3c(c2)CCN(CC2CCOCC2)C3)n1  not fulfilled
2  CCOc1c(C(=O)O)cnn1-c1cccc(-c2cccc(C)c2OCc2cc3c(c(C(F)(F)F)c2)CN(C2CCOCC2)CC3)n1  not fulfilled
3  CCOc1c(C(=O)O)cnn1-c1cccc(-c2cccc(C)c2OCc2ccc3c(c2C)CCN(C2COC2)C3)n1      fulfilled
4  COc1c(C(=O)O)cnn1-c1cccc(-c2cccc(C)c2OCc2ccc3c(c2)CCN(C2COC2)C3)n1      fulfilled

hey, is solubility at 24 h for this one >= 90 µg/mL? CCOc1c(C(=O)O)cnn1-c1cccc(-c2cccc(C)c2OCc2cc(C)c3c(c2)CCN([C@H]2CCCOC2)C3)n1
not fulfilled

hey, is solubility at 24 h for this one >= 90 µg/mL? CCOc1c(C(=O)O)cnn1-c1cccc(-c2cccc(C)c2OCc2cc(C)c3c(c2)CCN(CC2COCCO2)C3)n1 (stereo not shown)
not fulfilled

---

Let's look at some compounds and their measured solubility at 24 h.
- Protocol text: Assessment of solubility (McIlvaine buffers, 24 h shake, UPLC-UV)
- Format: physicochemical
- Assay context: pH 2.2, aqueous buffer, kinetic from dmso stock
Numeric only. Scale: µg/mL

These recorded examples may help you get a feel for the data.
> print(dat)
                                   compound     outcome.measure  observed.measurement
1  CCOc1c(C(=O)O)cnn1-c1cccc(-c2cccc(Cl)c2OCc2ccc3c(c2)CCNC3)n1  solubility at 24 h                   120
2  CCOc1c(C(=O)O)cnn1-c1cccc(-c2cccc(C)c2OCc2ccc3c(c2C)CCN(C[C@@H]2CCCCO2)C3)n1  solubility at 24 h                   110
3  CCOc1c(C(=O)O)cnn1-c1cccc(-c2cccc(C)c2OCc2ccc3c(c2)CCN(CC2CCCO2)C3)n1 (stereo not shown)  solubility at 24 h                    90

Next compound, solubility at 24 h to be filled in.
Any idea what solubility at 24 h was measured for CCOc1c(C(=O)O)cnn1-c1cccc(-c2cccc(C)c2OCc2cc(C)c3c(c2)CCN([C@@H]2CCCOC2)C3)n1 ?
110

---

- Protocol text: Assessment of solubility (McIlvaine buffers, 24 h shake, UPLC-UV)
- Type: physicochemical
- Assay context: pH 4.5, aqueous buffer, kinetic from dmso stock
Outcome measure: solubility at 24 h (µg/mL)
Numeric only. Scale: µg/mL

These recorded examples may help you get a feel for the data.
> print(dat)
                                   molecule  value.unit  observed.measurement
1  CCOc1c(C(=O)O)cnn1-c1cccc(-c2cccc(C)c2OCc2ccc3c(c2C)CCN(CCOCCO)C3)n1 [Compound 168]       µg/mL                    90
2  CCOc1c(C(=O)O)cnn1-c1cccc(-c2cccc(C)c2OCc2ccc3c(c2)OCCN(C2CCOCC2)C3)n1 [Compound 131]       µg/mL                    97
3  CCOc1c(C(=O)O)cnn1-c1cccc(-c2cccc(C)c2OCc2ccc3c(c2C)CN(C2CCOCC2)C3)n1 [Compound 119]       µg/mL                    89
4  COc1c(C(=O)O)cnn1-c1cccc(-c2cccc(C)c2OCc2ccc3c(c2)CCN([C@H]2CC[C@@H](OC)CC2)C3)n1 [Compound 91]       µg/mL                    81
5  COc1c(C(=O)O)cnn1-c1cccc(-c2cccc(C)c2OCc2ccc3c(c2C)CCN(C2CCOCC2)CC3)n1 [Compound 184]       µg/mL                    76

Any idea what solubility at 24 h was measured for CCOc1c(C(=O)O)cnn1-c1cccc(-c2cccc(C)c2OCc2ccc3c(c2C)CCN(C[C@H]2CCCOC2)C3)n1 [Compound 153] ?
67

Any idea what solubility at 24 h was measured for CCOc1c(C(=O)O)cnn1-c1cccc(-c2cccc(C)c2OCc2cc(C)c3c(c2)CCN([C@@H]2CCCOC2)C3)n1 [Compound 195] ?
83

Any idea what solubility at 24 h was measured for COc1c(C(=O)O)cnn1-c1cccc(-c2cccc(C)c2OCc2ccc3c(c2)CN(CC2CC(F)(F)C2)C3)n1 [Compound 82] ?
100

Any idea what solubility at 24 h was measured for COc1c(C(=O)O)cnn1-c1cccc(-c2cccc(C)c2OCc2ccc3c(c2C)CCN(C[C@H]2COCCO2)CC3)n1 [Compound 203] ?
70

Any idea what solubility at 24 h was measured for COc1c(C(=O)O)cnn1-c1cccc(-c2cccc(C)c2OCc2ccc3c(c2Cl)CCN(C2CCOCC2)C3)n1 [Compound 18] ?
86
